system tested: T1, PD-L2 fuse-expressed with an Fc derived from human IgG1 (human, UniProt Q9BQ51 20-219, limits assumed)
T1 construct: Bought reagent; also called hPD-L2-Fc; not shown: Fc of human IgG1
T1 sequence (looked up): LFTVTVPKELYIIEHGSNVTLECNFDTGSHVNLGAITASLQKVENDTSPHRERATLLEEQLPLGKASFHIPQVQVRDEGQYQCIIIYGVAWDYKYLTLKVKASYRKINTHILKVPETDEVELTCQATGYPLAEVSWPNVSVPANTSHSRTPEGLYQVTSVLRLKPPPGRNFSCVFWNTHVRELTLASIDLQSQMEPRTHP
assay info: SPR Biacore T200; PD1-RFc mobile phase
Assign labels as follows, please: True for koff below 0.004 s⁻¹; False for koff equal to or exceeding 0.004 s⁻¹.

1. Seq No. 5-RFc (PD-1 variant PD1_56#-15 fused to rabbit IgG Fc) (Fc fusion, Signal peptide 1-20 left out; also called variant 4; Mut4/56#-15; not shown: rabbit IgG Fc (RFc) of vector pcDNA3.4-RFc) PGWFLDSPDRPWNPPTFSPALLVVTEGDNATFTCSFSNTSESFVLNWYRMSPSNQTDKLAAFPEDFRNCTQDCRFRVTQLPNGRDFHMSVVRARRNDSGTYLCGAISLSTPVWIKESLRAELRVTERRAEVPTAH; False
2. Seq No. 3-RFc (PD-1 variant PD1_56#-2 fused to rabbit IgG Fc) (Fc fusion, Signal peptide 1-20 left out; several higher bands in non-reducing SDS-PAGE; also called variant 2; Mut2/56#-2; not shown: rabbit IgG Fc (RFc) of vector pcDNA3.4-RFc) PGWFLDSPDRPWNPPTFSPALLVVTEGDNATFTCSFSNTSESFVLNWYRMSPSNQTDKLAAFPFLFNLPGQDCRFRVTQLPNGRDFHMSVVRARRNDSGTYLCGAISLSTPVWIKESLRAELRVTERRAEVPTAH; True
3. Seq No. 6-RFc (PD-1 variant PD1_56#-16 fused to rabbit IgG Fc) (Fc fusion, Signal peptide 1-20 left out; several higher bands in non-reducing SDS-PAGE; also called variant 5; PD1 variant 5 (56#-16); not shown: rabbit IgG Fc (RFc) of vector pcDNA3.4-RFc) PGWFLDSPDRPWNPPTFSPALLVVTEGDNATFTCSFSNTSESFVLNWYRMSPSNQTDKLAAFPEDFFTVSQDCRFRVTQLPNGRDFHMSVVRARRNDSGTYLCGAISLSTPVWIKESLRAELRVTERRAEVPTAH; False
4. Seq No. 4-RFc (PD-1 variant PD1_56#-3 fused to rabbit IgG Fc) (Fc fusion, Signal peptide 1-20 left out; several higher bands in non-reducing SDS-PAGE; also called variant 3; Mut3/56#-3; not shown: rabbit IgG Fc (RFc) of vector pcDNA3.4-RFc) PGWFLDSPDRPWNPPTFSPALLVVTEGDNATFTCSFSNTSESFVLNWYRMSPSNQTDKLAAFPWMFCFPGQDCRFRVTQLPNGRDFHMSVVRARRNDSGTYLCGAISLSTPVWIKESLRAELRVTERRAEVPTAH; True
5. Seq No. 7-RFc (PD-1 variant PD1_56#-108 fused to rabbit IgG Fc) (Fc fusion, Signal peptide 1-20 left out; also called variant 6; not shown: rabbit IgG Fc (RFc) of vector pcDNA3.4-RFc) PGWFLDSPDRPWNPPTFSPALLVVTEGDNATFTCSFSNTSESFVLNWYRMSPSNQTDKLAAFPEDRINRSQDCRFRVTQLPNGRDFHMSVVRARRNDSGTYLCGAISLSTPVWIKESLRAELRVTERRAEVPTAH; True
